EXPERIMENTAL DETAILS: Noncompartmental pharmacokinetic parameters (Cmax, Tmax, AUC, Racc) in QD and BID cohorts of Form B
Format: in vivo, human
CONDITION SUMMARY: human, plasma, oral, 650 mg, Cohort 5, 650 mg QD of Form B, Day 1; read-out: Tmax, Mean
EXPERIMENTAL READOUT: Tmax (h)
State the answer as a number, implicitly in h.

// CC(C)N1CCN(c2ccc(Nc3ncc4cc5n(c4n3)C3(CCCCC3)CNC5=O)nc2)CC1 : Tmax value = 7.67

----------
EXPERIMENTAL DETAILS: Steady-state AUC0-24,ss, (AUC0-24,ss)/dose, half-life and time to steady state: Compound I versus palbociclib, ribociclib, abemaciclib
Format: in vivo, human
CONDITION SUMMARY: human, plasma, oral; 650 mg QD of Form B of Compound II, Day 29
EXPERIMENTAL READOUT: Cmax

Short answer for CC(C)N1CCN(c2ccc(Nc3ncc4cc5n(c4n3)C3(CCCCC3)CNC5=O)nc2)CC1 : Cmax was 66 ng/mL

----------
EXPERIMENTAL DETAILS: Noncompartmental pharmacokinetic parameters (Cmax, Tmax, AUC, Racc) in QD and BID cohorts of Form B
Type: in vivo, human
CONDITION SUMMARY: human, plasma, oral, 300 mg, Compound III; 300 mg QD of Form B; Cohort 2; Day 29; read-out: Cmax (Median)
EXPERIMENTAL READOUT: Cmax (ng/mL)
Report the figure in ng/mL without appending any unit label.

Cmax in this record for O=C1NCC2(CCCCC2)n2c1cc1cnc(Nc3ccc(N4CCNCC4)cn3)nc12 : 5.56

----------
EXPERIMENTAL DETAILS: Plasma concentration versus time of Compound I and metabolite Compound III in patients dosed QD or BID with Form B of Compound II plus fulvestrant
Assay type: in vivo, human
CONDITION SUMMARY: human, plasma, oral, 100 mg, 100 mg BID of Form B, Day 1, 10.0 h, Median; read-out: Compound III Concentration
EXPERIMENTAL READOUT: concentration at 10 h (ng/mL)
Write the number in ng/mL without appending the unit.

In plain terms, O=C1NCC2(CCCCC2)n2c1cc1cnc(Nc3ccc(N4CCNCC4)cn3)nc12 has a documented concentration at 10 h of 0

----------
EXPERIMENTAL DETAILS: Plasma concentration versus time of Compound I and metabolite Compound III in patients dosed QD or BID with Form B of Compound II plus fulvestrant
Type: in vivo, human
CONDITION SUMMARY: human, plasma, oral, 650 mg, 650 mg QD of Form B, Day 1, 3.0 h, Median; read-out: Compound III Concentration
EXPERIMENTAL READOUT: concentration at 3 h (ng/mL)
Write the answer as a number in ng/mL, unit excluded.

Recorded result, O=C1NCC2(CCCCC2)n2c1cc1cnc(Nc3ccc(N4CCNCC4)cn3)nc12 [Compound III] , concentration at 3 h: 6.43

----------
EXPERIMENTAL DETAILS: clinical
CONDITION SUMMARY: human, in vivo, 650 mg
EXPERIMENTAL READOUT: AUC(0-t) (ng·h/mL)
A number alone suffices; assume ng·h/mL.

The compound listed as CC(C)N1CCN(c2ccc(Nc3ncc4cc5n(c4n3)C3(CCCCC3)CNC5=O)nc2)CC1 [Compound I] has a reported AUC(0-t) of 956

----------
EXPERIMENTAL DETAILS: Plasma concentration versus time of Compound I and metabolite Compound III in patients dosed QD or BID with Form B of Compound II plus fulvestrant
Assay type: in vivo, human
CONDITION SUMMARY: human, plasma, oral, 400 mg, 400 mg QD of Form B, Day 29, 12.0 h, Mean; read-out: Compound I Concentration
EXPERIMENTAL READOUT: concentration at 12 h (ng/mL)
The response must be a number in ng/mL with no trailing unit.

# concentration at 12 h (molecule: CC(C)N1CCN(c2ccc(Nc3ncc4cc5n(c4n3)C3(CCCCC3)CNC5=O)nc2)CC1 [Compound I] ) is 11.8

----------
EXPERIMENTAL DETAILS: Noncompartmental pharmacokinetic parameters (Cmax, Tmax, AUC, Racc) in QD and BID cohorts of Form B
Format: in vivo, human
CONDITION SUMMARY: human, plasma, oral, 400 mg, Compound III; 400 mg QD of Form B; Cohort 3; Day 29; read-out: Cmax (Mean)
EXPERIMENTAL READOUT: Cmax
Report field: quantity (unit follows the number).

The reported Cmax of the compound O=C1NCC2(CCCCC2)n2c1cc1cnc(Nc3ccc(N4CCNCC4)cn3)nc12 was 3.5 ng/mL

----------
EXPERIMENTAL DETAILS: Plasma concentration versus time of Compound I and metabolite Compound III in patients dosed QD or BID with Form B of Compound II plus fulvestrant
Format: in vivo, human
CONDITION SUMMARY: human, plasma, oral, 100 mg, Cohort 6, 100 mg BID of Form B, Day 8; read-out: Trough Compound III Concentration, Min
EXPERIMENTAL READOUT: concentration at 8 day (ng/mL)
Write the number in ng/mL without appending the unit.

What the record says about O=C1NCC2(CCCCC2)n2c1cc1cnc(Nc3ccc(N4CCNCC4)cn3)nc12 [Compound III] : concentration at 8 day is 0

----------
EXPERIMENTAL DETAILS: Plasma concentration versus time of Compound I and metabolite Compound III in patients dosed QD or BID with Form B of Compound II plus fulvestrant
Assay type: in vivo, human
CONDITION SUMMARY: human, plasma, oral, 150 mg, Cohort 7, 150 mg BID of Form B, Day 29, 10.0 h; read-out: Compound I Concentration, Median
EXPERIMENTAL READOUT: concentration at 10 h (ng/mL)
# output: bare number, implied unit ng/mL

The recorded concentration at 10 h for CC(C)N1CCN(c2ccc(Nc3ncc4cc5n(c4n3)C3(CCCCC3)CNC5=O)nc2)CC1 is 23.8

----------
EXPERIMENTAL DETAILS: Plasma concentration versus time of Compound I and metabolite Compound III in patients dosed QD or BID with Form B of Compound II plus fulvestrant
Type: in vivo, human
CONDITION SUMMARY: human, plasma, oral, 650 mg, Cohort 5, 650 mg QD of Form B, Day 29, 10.0 h; read-out: Compound I Concentration, Max
EXPERIMENTAL READOUT: concentration at 10 h

get_value(item= CC(C)N1CCN(c2ccc(Nc3ncc4cc5n(c4n3)C3(CCCCC3)CNC5=O)nc2)CC1 [Compound I] , readout=concentration at 10 h) returns 78.2 ng/mL

----------
EXPERIMENTAL DETAILS: Noncompartmental pharmacokinetic parameters (Cmax, Tmax, AUC, Racc) in QD and BID cohorts of Form B
Type: in vivo, human
CONDITION SUMMARY: human, plasma, oral, 500 mg, Compound III; 500 mg QD of Form B; Cohort 4; Day 1; read-out: Tmax (Median)
EXPERIMENTAL READOUT: Tmax (h)
Entry rule: numbers only, all in h.

Data point: O=C1NCC2(CCCCC2)n2c1cc1cnc(Nc3ccc(N4CCNCC4)cn3)nc12 [Compound III] ; Tmax = 6

----------
EXPERIMENTAL DETAILS: Plasma concentration versus time of Compound I and metabolite Compound III in patients dosed QD or BID with Form B of Compound II plus fulvestrant
Assay type: in vivo, human
CONDITION SUMMARY: human, plasma, oral, 300 mg, 300 mg QD of Form B, Day 1, 4.0 h, Mean; read-out: Compound I Concentration
Text: Patients were enrolled into 1 of 2 parallel, independently operating, dose-escalation dosing cohorts with Form B of Compound II administered continuously either once daily (QD) or twice daily (BID) with food with fixed-dose fulvestrant (intramuscularly every 14 days for the first three injections and then every 28 days). Pre- or perimenopausal patients also received goserelin for the duration of study treatment. […]
EXPERIMENTAL READOUT: concentration at 4 h

Entry under test: CC(C)N1CCN(c2ccc(Nc3ncc4cc5n(c4n3)C3(CCCCC3)CNC5=O)nc2)CC1 . Its concentration at 4 h was 32 ng/mL

----------
EXPERIMENTAL DETAILS: Plasma concentration versus time of Compound I and metabolite Compound III in patients dosed QD or BID with Form B of Compound II plus fulvestrant
Format: in vivo, human
CONDITION SUMMARY: human, plasma, oral, 150 mg, 150 mg BID of Form B, Day 1, 6.0 h, Mean; read-out: Compound I Concentration
EXPERIMENTAL READOUT: concentration at 6 h (ng/mL)
Numeric only. Scale: ng/mL

The reported value for CC(C)N1CCN(c2ccc(Nc3ncc4cc5n(c4n3)C3(CCCCC3)CNC5=O)nc2)CC1 [Compound I] in terms of concentration at 6 h is 12.2
